- TEST METHOD NOTES: Therapeutic drug monitoring
- Format: in vivo, human
- CONDITIONS USED: both, human, plasma, oral, 400 mg/qd, Plasma concentration, OCT1 1795G > A (rs6935207) GG, n=8
Where a name gives a salt, the structure may show the parent alone.
QUANTITY: concentration at 22 h
# output: number + unit

Indicate its recorded concentration at 22 h; the compound in question is Cc1ccc(NC(=O)c2ccc(CN3CCN(C)CC3)cc2)cc1Nc1nccc(-c2cccnc2)n1 [IM, Imatinib mesylate]
1700 ng/mL

###

- TEST METHOD NOTES: Therapeutic drug monitoring
- Format: in vivo, human
- CONDITIONS USED: both, human, plasma, oral, 400 mg/qd, Plasma concentration, OCT1 1222 A > G (rs628031) GG, n=18
Structures can show the parent of a compound that is named as a salt.
QUANTITY: concentration at 22 h (ng/mL)
Value expressed in ng/mL; do not type the unit.

Indicate its recorded concentration at 22 h; the compound in question is Cc1ccc(NC(=O)c2ccc(CN3CCN(C)CC3)cc2)cc1Nc1nccc(-c2cccnc2)n1 [IM, Imatinib mesylate]
1500

###

- TEST METHOD NOTES: Therapeutic drug monitoring
- Assay type: in vivo, human
- CONDITIONS USED: both, human, plasma, oral, 400 mg/qd, Plasma concentration, OCT1 1022C > T (rs 2282143) TC, n=7
Counter-ions that a name gives are not always drawn.
QUANTITY: concentration at 22 h (ng/mL)
Value expressed in ng/mL; do not type the unit.

Indicate its recorded concentration at 22 h; the compound in question is Cc1ccc(NC(=O)c2ccc(CN3CCN(C)CC3)cc2)cc1Nc1nccc(-c2cccnc2)n1 [IM, Imatinib mesylate]
1750

###

- TEST METHOD NOTES: Therapeutic drug monitoring
- Type: in vivo, human
- CONDITIONS USED: both, human, plasma, oral, 400 mg/qd, Plasma concentration, OCT1 1386C > A (rs 622342) AC, n=5
Structures can show the parent of a compound that is named as a salt.
QUANTITY: concentration at 22 h (ng/mL)
Value expressed in ng/mL; do not type the unit.

Indicate its recorded concentration at 22 h; the molecule in question is Cc1ccc(NC(=O)c2ccc(CN3CCN(C)CC3)cc2)cc1Nc1nccc(-c2cccnc2)n1 [IM, Imatinib mesylate]
1490

###

- TEST METHOD NOTES: Therapeutic drug monitoring
- Format: in vivo, human
- CONDITIONS USED: both, human, plasma, oral, 400 mg/qd, Plasma concentration, OCT1 1222 A > G (rs628031) AA, n=1
Counter-ions that a name gives are not always drawn.
QUANTITY: concentration at 22 h (ng/mL)
Value expressed in ng/mL; do not type the unit.

Indicate its recorded concentration at 22 h; the compound in question is Cc1ccc(NC(=O)c2ccc(CN3CCN(C)CC3)cc2)cc1Nc1nccc(-c2cccnc2)n1 [IM, Imatinib mesylate]
300
